- target.or.system: Replicase polyprotein 1ab (Severe acute respiratory syndrome-related coronavirus)
measured.metric: pIC50
One number for each entry, as −log10 of the molar value.

Sample answers from the record:
> print(dat)
                            molecule.smiles  reported
1  O=C(O)c1ccccc1-c1ccc(/C=C2\C(=O)N(c3ccccc3)N=C2c2ccccc2)o1      4.39
2  O=C(O)c1ccc(Cl)cc1-c1ccc(/C=C2\C(=O)N(c3ccccc3)N=C2c2ccccc2)o1      4.79
3  O=C(O)c1cccc(N2N=C(c3ccccc3)/C(=C/c3ccc(-c4ccccc4)o3)C2=O)c1      5.19
4  O=C(O)c1ccc(Cl)cc1-c1ccc(/C=C2\C(=O)N(c3ccc(F)cc3)N=C2c2ccccc2)o1      4.69
5  CC(C)(C)c1ccc(N2N=C(c3ccccc3)/C(=C/c3ccc(-c4cc(Cl)ccc4C(=O)O)o3)C2=O)cc1      5.24

The molecule O=C(O)c1cccc(N2N=C(c3ccccc3)/C(=C/c3ccc(-c4cc(Cl)ccc4C(=O)O)o3)C2=O)c1 showed pIC50 equal to 4.35

###

Consider molecules characterized by their pIC50 with Replicase polyprotein 1ab (Severe acute respiratory syndrome-related coronavirus).
Give bare numbers, as −log10 of the molar value.

Sample answers from the record:
> print(dat)
                            molecule.smiles  reported
1  N#Cc1ccc(N2N=C(c3ccccc3)/C(=C/c3ccc(-c4ccccc4C(=O)O)o3)C2=O)cc1      4.73
2  O=C(O)c1ccccc1-c1ccc(/C=C2\C(=O)N(c3ccc(F)cc3)N=C2c2ccccc2)o1      4.43
3  COc1ccc(N2N=C(c3ccccc3)/C(=C/c3ccc(-c4ccccc4C(=O)O)o3)C2=O)cc1      4.51
4  CC(C)(C)c1ccc(N2N=C(c3ccccc3)/C(=C/c3ccc(-c4ccccc4C(=O)O)o3)C2=O)cc1      5.07

The molecule CC(C)c1ccc(N2N=C(c3ccccc3)/C(=C/c3ccc(-c4ccccc4C(=O)O)o3)C2=O)cc1 showed pIC50 equal to 4.93

###

Kindly state pIC50 for each of the entries shown.
- target.or.system: Replicase polyprotein 1ab (Severe acute respiratory syndrome-related coronavirus, UniProt P0C6X7)
pIC50: −log10 of the molar value.

Sample answers from the record:
> print(dat)
                            molecule.smiles  reported
1  CC1=NN(c2cccc(C(=O)O)c2)C(=O)/C1=C\c1ccc(-c2cc(Cl)ccc2C(=O)O)o1    < 4.30
2  CC1=NN(c2ccccc2)C(=O)/C1=C\c1ccc(-c2cc(Cl)ccc2C(=O)O)o1    < 4.30

Please look at the following compound next.
The compound O=C(O)c1cccc(N2N=C(c3ccccc3)/C(=C/c3ccco3)C2=O)c1 showed pIC50 equal to < 4.30

###

Kindly state IC50 for each of the entries shown.
- target.or.system: Replicase polyprotein 1ab (Severe acute respiratory syndrome-related coronavirus, UniProt P0C6X7)

List the reported IC50 of each compound below.
1. O=C1/C(=C\c2ccc(-c3ccccc3)o2)C(c2ccccc2)=NN1c1ccccc1
2. O=C(O)c1cccc(N2N=C(C(F)(F)F)/C(=C/c3ccc(-c4cc(Cl)ccc4C(=O)O)o3)C2=O)c1
3. CC1=NN(c2cccc(C(=O)O)c2)C(=O)/C1=C\c1ccc(-c2ccccc2)o1

### Response
1. > 50 µM
2. > 50 µM
3. > 50 µM
